Biological target: VIPR2 (Homo sapiens, UniProt P41587)
Sequence (P41587 24-438): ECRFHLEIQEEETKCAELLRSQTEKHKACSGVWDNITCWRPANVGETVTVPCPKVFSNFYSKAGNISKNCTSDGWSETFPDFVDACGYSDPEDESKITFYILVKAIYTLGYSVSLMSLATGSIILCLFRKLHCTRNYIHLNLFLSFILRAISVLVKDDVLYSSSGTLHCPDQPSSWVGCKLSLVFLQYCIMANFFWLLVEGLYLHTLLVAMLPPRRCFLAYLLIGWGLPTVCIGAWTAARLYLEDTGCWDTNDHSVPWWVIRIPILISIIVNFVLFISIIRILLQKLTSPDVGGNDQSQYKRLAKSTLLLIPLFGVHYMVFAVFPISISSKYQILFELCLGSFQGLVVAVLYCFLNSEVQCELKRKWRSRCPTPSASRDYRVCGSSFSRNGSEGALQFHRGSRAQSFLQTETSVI
Assay: Inhibition of VIP-induced β-arrestin recruitment (% Activity Arrestin)
Type: cell-based
Set-up: expressed in transfected cells; host or cells: HEK293 cells transfected with VIPR2 in pCDNA3.1 (as described)
Conditions: 5 μM, Batch 3
QUANTITY: inhibition at 5 µM (%)
Express it in %; write the number only.

Asked: Fill in: inhibition at 5 µM of `CCCCCNc1ccc(S(=O)(=O)NC[C@@H](O)C[C@@H](Cc2ccccc2)C(=O)N[C@H]2c3ccccc3C[C@H]2O)cc1` is ___
Given back: 11.3

Asked: Fill in: inhibition at 5 µM of `CCCNc1ccc(S(=O)(=O)NC[C@@H](O)C[C@@H](Cc2ccccc2)C(=O)N[C@H]2c3ccccc3C[C@H]2O)cc1` is ___
Given back: 6.7

Asked: Fill in: inhibition at 5 µM of `CNC(=O)c1ccc(S(=O)(=O)NC[C@@H](O)C[C@@H](Cc2ccccc2)C(=O)N[C@H]2c3ccccc3C[C@H]2O)cc1` is ___
Given back: -1

Asked: Fill in: inhibition at 5 µM of `O=C(N[C@H]1c2ccccc2C[C@H]1O)[C@H](Cc1ccccc1)C[C@H](O)CNS(=O)(=O)c1ccc(C(=O)N2CCOCC2)cc1` is ___
Given back: -5.4

Asked: Fill in: inhibition at 5 µM of `CC(C)Nc1ccc(S(=O)(=O)NC[C@@H](O)C[C@@H](Cc2ccccc2)C(=O)N[C@H]2c3ccccc3C[C@H]2O)cc1` is ___
Given back: 11.8

Asked: Fill in: inhibition at 5 µM of `CC(=O)Nc1ccc(S(=O)(=O)NC[C@@H](O)C[C@@H](Cc2ccccc2)C(=O)N[C@H]2c3ccccc3C[C@H]2O)cc1` is ___
Given back: 4.2

Asked: Fill in: inhibition at 5 µM of `O=C(NCc1ccccc1)c1ccc(S(=O)(=O)NC[C@@H](O)C[C@@H](Cc2ccccc2)C(=O)N[C@H]2c3ccccc3C[C@H]2O)cc1` is ___
Given back: -7.7
